# Tested on: SF-268
# measurement protocol: NCI tumour cell line growth inhibition, 48 h
The source made the active and inactive calls. Cut-off read from the data, not from the text of the source: active = GI50 up to about 1.1 µM and inactive = higher.
readout kind: GI50

In [3]: df
Out[3]:
                                    compound  test_target       endpoint_result
 0              C=CCOC(=O)Cn1ccc(=O)[nH]c1=O       SF-268   > 100 µM (inactive)
 1  O=C1CCC23CC(C=CC=C12)n1c(=O)n(-c2ccccc2)c(=O)n13 (stereo unspecified)       SF-268  > 73.6 µM (inactive)
 2     O=C(O)CCC(c1ccccc1)(c1ccccc1)c1ccccc1       SF-268    24.5 µM (inactive)
 3         COc1ccc2c(c1)-c1[nH]c3ccccc3c1CC2       SF-268    14.9 µM (inactive)
 4  CC1=C(C(=O)CC(=O)C(=O)NC2C3CC4CC(C3)CC2C4)Sc2ccccc2N1 (stereo unspecified)       SF-268  > 94.8 µM (inactive)
 5  CC(=O)N[C@@H](Cc1ccc(O)cn1)C(=O)NCc1cccc(F)c1       SF-268   > 100 µM (inactive)
 6             COc1cc2c(c(OC)c1OC)C(=O)NCCC2       SF-268   > 100 µM (inactive)
 7  c1ccc(C2(c3ccccc3)S/C(=C3/SC(c4ccccc4)(c4ccccc4)c4ccccc43)c3ccccc32)cc1       SF-268   > 100 µM (inactive)
 8  Cn1c(=O)nc2n(-c3ccc(Cl)cc3)c(-c3ccccc3)c(-c3ccccc3)nc-2c1=O       SF-268    23.6 µM (inactive)
 9  CCOC12SC(Nc3ccc(C)cc3)=NN1C(=S)N(C)N=C2C (stereo unspecified)       SF-268   > 100 µM (inactive)
10       Cc1nc(-c2cc3c(ccc4ccccc43)oc2=O)cs1       SF-268    35.6 µM (inactive)
